Test: Clearance in Rattus norvegicus Sprague-Dawley (rat) at 2 mg/kg, iv
Type: ADME, organism-based
Parameters: dose 2 mg/kg, route intravenous
Details: Sprague-Dawley, in vivo
experimental.readout: clearance (mL/min/kg)
Return type: number; implicit unit mL/min/kg.

## Task Value lookup for clearance; key = CCO[C@H]1O[C@@H]2O[C@@]3(C)CC[C@H]4[C@H](C)CC[C@@H]([C@H]1C)[C@@]24OO3 [ARTEMOTIL]
## Result 127

###

Assay: AUC (0 to infinity) in Macaca mulatta (Rhesus monkey) at 4 mg/kg, iv
Assay type: ADME, organism-based, Plasma
Parameters: time infinity, dose 4 mg/kg, route intravenous
Settings: plasma
experimental.readout: AUC(0-inf)
Don't forget the unit after the value.

## Task Report AUC(0-inf) for CCO[C@H]1O[C@@H]2O[C@@]3(C)CC[C@H]4[C@H](C)CC[C@@H]([C@H]1C)[C@@]24OO3 please.
## Result 1220 ng·h/mL
